B1: LINE1-mini (parent)
chain: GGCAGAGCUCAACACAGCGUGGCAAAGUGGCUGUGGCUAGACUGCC

variants of: B1; assay: self-cleavage, relative activity (ratio to wild type); higher = more cleavage; in vitro, sequencing; the parent is a self-cleaving ribozyme
measuredAttribute: self-cleavage
// no unit string in output, number only

Qu. Entry under review: C8U U43A . Reported self-cleavage?
Ans. 0.08
